Cited source: ChEMBL document CHEMBL4038292

Measured Ki, listed per entry for reference.
- tested on: Delta-type opioid receptor (Rattus norvegicus)
- Sequence (P33533 whole entry): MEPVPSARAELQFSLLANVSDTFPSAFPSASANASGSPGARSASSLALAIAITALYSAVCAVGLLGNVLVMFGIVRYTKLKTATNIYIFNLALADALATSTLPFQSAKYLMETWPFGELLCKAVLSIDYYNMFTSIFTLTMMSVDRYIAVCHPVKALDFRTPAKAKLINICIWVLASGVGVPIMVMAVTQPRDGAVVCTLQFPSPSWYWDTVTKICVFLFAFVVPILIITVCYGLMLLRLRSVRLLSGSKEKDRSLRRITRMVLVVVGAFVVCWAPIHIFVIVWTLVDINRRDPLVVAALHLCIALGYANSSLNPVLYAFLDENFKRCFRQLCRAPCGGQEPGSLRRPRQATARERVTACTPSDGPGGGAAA
- test protocol: Displacement of [3H]DPDPE from delta-opioid receptor in Wistar rat brain membrane after 3 hrs by microbeta scintillation counting method
experimental endpoint: Ki (µM)

| smiles repr | experimental endpoint | bound type | quantitative result |
| --- | --- | --- | --- |
| N=C(N)N[C@@H](Cc1ccc(O)cc1)C(=O)N1CCC[C@@H]1C(=O)NCC(=O)N[C@@H](Cc1ccccc1)C(N)=O | Ki | = | 4.55 |
| C[C@@H](NC(=O)[C@@H](N)Cc1ccc(O)cc1)C(=O)NCC(=O)N[C@@H](Cc1ccccc1)C(N)=O | Ki | = | 3.8 |
| C[C@@H](NC(=O)[C@H](Cc1ccc(O)cc1)NC(=N)N)C(=O)NCC(=O)N[C@@H](Cc1ccc(Cl)cc1)C(N)=O | Ki | = | 0.101 |
| C[C@@H](NC(=O)[C@H](Cc1ccc(O)cc1)NC(=N)N)C(=O)NCC(=O)N[C@@H](Cc1ccccc1)C(N)=O | Ki | = | 0.84 |
| C[C@@H](NC(=O)[C@@H](N)Cc1ccc(O)cc1)C(=O)NCC(=O)N[C@@H](Cc1ccc(Cl)cc1)C(N)=O | Ki | > | 1 |

----------
- Species: Rattus norvegicus
- test protocol: Selectivity ratio of Ki for displacement of [3H]DPDPE from delta-opioid receptor in Wistar rat membrane to Ki for displacement of [3H]DAMGO from mu-opioid receptor in Wistar rat brain membrane
- Type: cell membranes
experimental endpoint: Ratio Ki

| smiles repr | quantitative result |
| --- | --- |
| C[C@@H](NC(=O)[C@H](Cc1ccc(O)cc1)NC(=N)N)C(=O)NCC(=O)N[C@@H](Cc1ccccc1)C(N)=O | 2000 |
| N=C(N)N[C@@H](Cc1ccc(O)cc1)C(=O)N1CCC[C@@H]1C(=O)NCC(=O)N[C@@H](Cc1ccccc1)C(N)=O | 18.4 |
| C[C@@H](NC(=O)[C@@H](N)Cc1ccc(O)cc1)C(=O)NCC(=O)N[C@@H](Cc1ccccc1)C(N)=O | 1800 |
| C[C@@H](NC(=O)[C@H](Cc1ccc(O)cc1)NC(=N)N)C(=O)NCC(=O)N[C@@H](Cc1ccc(Cl)cc1)C(N)=O | 288 |

----------
- test protocol: Half life in Kunming mouse plasma at 500 uM by RP-HPLC method
- Type: ADME, cell-free
Measured half-life at 500 µM, listed per entry for reference.

| compound | unit info | half-life at 500 µM |
| --- | --- | --- |
| N=C(N)N[C@@H](Cc1ccc(O)cc1)C(=O)N1CCC[C@@H]1C(=O)NCC(=O)N[C@@H](Cc1ccccc1)C(N)=O | h | 3.68 |
| C[C@@H](NC(=O)[C@@H](N)Cc1ccc(O)cc1)C(=O)NCC(=O)N[C@@H](Cc1ccccc1)C(N)=O | h | 4.38 |
| C[C@@H](NC(=O)[C@H](Cc1ccc(O)cc1)NC(=N)N)C(=O)NCC(=O)N[C@@H](Cc1ccc(Cl)cc1)C(N)=O | h | 3.91 |
| NC(=O)[C@H](Cc1ccccc1)NC(=O)[C@H](Cc1c[nH]c2ccccc12)NC(=O)[C@@H]1CCCN1C(=O)[C@@H](N)Cc1ccc(O)cc1 [ENDOMORPHIN-1] | h | 0.101 |
| C[C@@H](NC(=O)[C@H](Cc1ccc(O)cc1)NC(=N)N)C(=O)NCC(=O)N[C@@H](Cc1ccccc1)C(N)=O | h | 3.87 |
| C[C@@H](NC(=O)[C@@H](N)Cc1ccc(O)cc1)C(=O)NCC(=O)N[C@@H](Cc1ccc(Cl)cc1)C(N)=O | h | 3.99 |

----------
- tested on: Mu-type opioid receptor (Rattus norvegicus)
- Sequence (P33535 whole entry): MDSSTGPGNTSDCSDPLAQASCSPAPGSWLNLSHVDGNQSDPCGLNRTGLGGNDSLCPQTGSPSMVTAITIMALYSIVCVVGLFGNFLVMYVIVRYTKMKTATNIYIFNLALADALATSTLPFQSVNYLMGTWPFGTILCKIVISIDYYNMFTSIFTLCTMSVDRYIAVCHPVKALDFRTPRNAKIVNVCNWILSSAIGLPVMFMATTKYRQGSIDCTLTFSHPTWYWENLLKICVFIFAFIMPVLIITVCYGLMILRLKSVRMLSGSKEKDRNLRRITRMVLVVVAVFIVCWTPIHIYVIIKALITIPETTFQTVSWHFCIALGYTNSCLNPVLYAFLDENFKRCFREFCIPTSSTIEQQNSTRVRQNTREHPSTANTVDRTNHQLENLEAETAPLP
experimental endpoint: Ki (nM)

| smiles repr | experimental endpoint | quantitative result |
| --- | --- | --- |
| C[C@@H](NC(=O)[C@H](Cc1ccc(O)cc1)NC(=N)N)C(=O)NCC(=O)N[C@@H](Cc1ccccc1)C(N)=O | Ki | 0.42 |
| C[C@@H](NC(=O)[C@H](Cc1ccc(O)cc1)NC(=N)N)C(=O)NCC(=O)N[C@@H](Cc1ccc(Cl)cc1)C(N)=O | Ki | 0.35 |
| N=C(N)N[C@@H](Cc1ccc(O)cc1)C(=O)N1CCC[C@@H]1C(=O)NCC(=O)N[C@@H](Cc1ccccc1)C(N)=O | Ki | 247 |
| C[C@@H](NC(=O)[C@@H](N)Cc1ccc(O)cc1)C(=O)NCC(=O)N[C@@H](Cc1ccccc1)C(N)=O | Ki | 2.11 |
| C[C@@H](NC(=O)[C@@H](N)Cc1ccc(O)cc1)C(=O)NCC(=O)N[C@@H](Cc1ccc(Cl)cc1)C(N)=O | Ki | 1.24 |
